Assay: Protein binding in human liver microsomes at 1 uM by ultracentrifugation method
Type: ADME, microsome
Details: read-out: PB
recordedMetric: fraction unbound at 1 µM

Query block: What does the data say about its fraction unbound at 1 µM? Entry: CS(=O)(=O)O.c1cc(C2CCC3(CC2)OOC2(OO3)C3CC4CC(C3)CC2C4)ccc1CN1CCOCC1 (stereo unspecified)
Result block: < 0.001

----------
Assay: Solubility in 0.1 N HCl buffer at pH 1 after 4 hrs by HPLC analysis
Type: physicochemical
# solubility at 4 h values compiled below
Could you give me the number in µg/mL? Just the number is fine.

# molecule, solubility at 4 h, µg/mL
rows = [
    ("CS(=O)(=O)O.c1cc(C2CCC3(CC2)OOC2(OO3)C3CC4CC(C3)CC2C4)ccc1CN1CCOCC1 (configuration not stated)", 17),
]

// switching to the query molecule
Query block: What does the data say about its solubility at 4 h? Entry: CS(=O)(=O)O.c1cc(C2CCC3(CC2)OOC2(O3)C3CC4CC(C3)CC2C4)ccc1OCCN1CCOCC1 (configuration not stated)
Result block: 34

----------
Test: Intrinsic clearance in rat liver microsomes assessed per mg protein at 5 uM by UPLC-MS analysis
Assay type: ADME, microsome
Details: read-out: CLH
recordedMetric: microsomal CLint at 5 µM (µL/min/mg)
Could you give me the number in µL/min/mg? Just the number is fine.

Query block: What does the data say about its microsomal CLint at 5 µM? Entry: c1cc(C2CCC3(CC2)OOC2(OO3)C3CC4CC(C3)CC2C4)ccc1CN1CCOCC1 (stereo unspecified)
Result block: 89

----------
Assay: Solubility in pH 2 citric acid monophosphate buffer after 4 hrs by HPLC analysis
Type: physicochemical
# solubility at 4 h values compiled below

# compound, solubility at 4 h
measured = [
    ("CS(=O)(=O)O.c1cc(C2CCC3(CC2)OOC2(OO3)C3CC4CC(C3)CC2C4)ccc1CN1CCOCC1 (configuration not stated)", "> 9000 µg/mL"),
]

// switching to the query compound
Query block: What does the data say about its solubility at 4 h? Entry: CS(=O)(=O)O.c1cc(C2CCC3(CC2)OOC2(O3)C3CC4CC(C3)CC2C4)ccc1OCCN1CCOCC1 (configuration not stated)
Result block: > 8000 µg/mL

Entry source: ChEMBL document CHEMBL4118195
